Biological target: UniProt P15538
Sequence (P15538 25-503): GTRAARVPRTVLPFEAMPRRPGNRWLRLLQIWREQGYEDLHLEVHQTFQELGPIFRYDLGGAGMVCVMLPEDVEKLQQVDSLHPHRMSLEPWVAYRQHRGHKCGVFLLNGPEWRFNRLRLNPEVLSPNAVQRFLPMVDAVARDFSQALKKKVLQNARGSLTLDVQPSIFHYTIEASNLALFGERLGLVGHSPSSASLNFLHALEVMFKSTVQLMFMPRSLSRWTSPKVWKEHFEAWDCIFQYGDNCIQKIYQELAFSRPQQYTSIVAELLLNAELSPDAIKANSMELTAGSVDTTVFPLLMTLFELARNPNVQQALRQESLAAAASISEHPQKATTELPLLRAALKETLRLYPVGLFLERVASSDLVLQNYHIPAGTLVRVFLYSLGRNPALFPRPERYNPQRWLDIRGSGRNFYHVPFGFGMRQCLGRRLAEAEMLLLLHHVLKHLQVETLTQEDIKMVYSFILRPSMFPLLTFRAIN
Assay: Inhibition of hCYP11B1 in transfected V79 cells
Details: hamster V79 cells expressing human CYP11B1; substrate 11-deoxycortisol 200 nM
pIC50: −log10 of the molar value.
observable: pIC50

                            chemical_smiles   target_entity  experimental_value
0  N#Cc1ccc(-c2cncc3c2CCN3C(=O)c2ccc(Cl)cc2)cc1  UniProt P15538                6.22
1  N#CN1CCN(c2cncc3c2OCCN3C(=O)C2CN(Cc3cccc(F)c3)C2)C(=O)C1  UniProt P15538                6.19
2  N#Cc1ccc(-c2cncc3c2OCCN3C(=O)CCc2cccc(Cl)c2)cc1  UniProt P15538                7.38

[A] O=C(c1ccccc1F)N1CCc2c(-c3ccc4[nH]ncc4c3)cncc21
[B] N#Cc1ccc(-c2cncc3c2SCCN3S(=O)(=O)C2CN(Cc3cccc(C#N)c3)C2)cc1
I'd appreciate it if you could identify which of A and B has the greater pIC50. API: response body contains the label of the selected item. B
(B: 7.72, A: 5.89)

Source listed as patent US20260092074A1.
